# Test system: Escherichia coli
# Test description: Antibacterial activity against Escherichia coli assessed as reduction in bacterial growth inhibition
# Assay type: functional
# MIC per entry
Value type: MIC (%v/v)

- Entry smiles: "Cc1cc(S(=O)(=O)O)c(C(C)C)cc1O"
  Qualifier operator: "="
  Measured result: 0.75
- Entry smiles: "Cc1ccc(C(C)C)cc1O"
  Qualifier operator: "<"
  Measured result: 0.09
- Entry smiles: "CCCCCCCCCCCC(=O)Oc1cc(C(C)C)ccc1C"
  Qualifier operator: ">"
  Measured result: 10
- Entry smiles: "Cc1cc(S(=O)(=O)[O-])c(C(C)C)cc1O.[K+]"
  Qualifier operator: "="
  Measured result: 5

---

# maps each entry to its MIC
# System: Clostridium perfringens
# Test description: Antibacterial activity against Clostridium perfringens assessed as reduction in bacterial growth inhibition
# Assay type: functional

- Entry smiles: "Cc1cc(S(=O)(=O)O)c(C(C)C)cc1O"
  Qualifier operator: "="
  MIC / %v/v: 0.37
- Entry smiles: "CCCCCCCCCCCC(=O)Oc1cc(C(C)C)ccc1C"
  Qualifier operator: "<"
  MIC / %v/v: 10
- Entry smiles: "Cc1ccc(C(C)C)cc1O"
  Qualifier operator: "<"
  MIC / %v/v: 0.09
- Entry smiles: "Cc1cc(S(=O)(=O)[O-])c(C(C)C)cc1O.[K+]"
  Qualifier operator: "="
  MIC / %v/v: 0.37

---

Overview of recorded inhibition zone (IZ) for various compounds
# Test system: Proteus vulgaris
# Test description: Antimicrobial activity against Proteus vulgaris NCIM 2813 assessed as zone of inhibition incubated for 24 hrs by agar diffusion method
# Assay type: functional

- Entry smiles: "Cc1ccc(C(C)C)cc1OCC(=O)Nc1cccc(Cl)c1"
  inhibition zone (IZ), mm: 16
- Entry smiles: "Cc1ccc(C(C)C)cc1O"
  inhibition zone (IZ), mm: 7
- Entry smiles: "Cc1ccc(C(C)C)cc1OCC(=O)Nc1ccc(Cl)cc1"
  inhibition zone (IZ), mm: 10
- Entry smiles: "CCCCCCCNC(=O)COc1cc(C(C)C)ccc1C"
  inhibition zone (IZ), mm: 7

---

# System: Bacillus subtilis
# Test description: Antibacterial activity against Bacillus subtilis assessed as zone of inhibition
# Format: functional
Reported values of inhibition zone (IZ) for individual entries

- Entry smiles: "CCCCCCCNC(=O)COc1cc(C(C)C)ccc1C"
  inhibition zone (IZ) [mm]: 6
- Entry smiles: "Cc1ccc(C(C)C)cc1OCC(=O)Nc1ccccc1"
  inhibition zone (IZ) [mm]: 8
- Entry smiles: "Cc1ccc(C(C)C)cc1OCC(=O)Nc1cccc(Cl)c1"
  inhibition zone (IZ) [mm]: 21
- Entry smiles: "Cc1ccc(C(C)C)cc1O"
  inhibition zone (IZ) [mm]: 13
- Entry smiles: "Cc1ccc(C(C)C)cc1OCC(=O)Nc1ccc(Cl)cc1"
  inhibition zone (IZ) [mm]: 18

---

# Target or test system: Mushroom tyrosinase (Agaricus bisporus, UniProt O42713+Q00024+C7FF04+C7FF05)
# Test description: Inhibition of mushroom tyrosinase using L-DOPA as substrate by spectrophotometric analysis
# Assay type: protein assay
Measured IC50 values are reported for all entries that follow.
Value type: IC50 (µM)

- Entry smiles: "Cc1ccc(C(C)C)cc1OC(=O)COC(=O)c1ccc(O)c(O)c1"
  Measured result: 15.9
- Entry smiles: "Cc1ccc(C(C)C)cc1OC(=O)COC(=O)c1ccc(O)cc1O"
  Measured result: 6.7
- Entry smiles: "Cc1ccc(C(C)C)cc1OC(=O)COC(=O)c1cccc(O)c1"
  Measured result: 14.9
- Entry smiles: "Cc1ccc(C(C)C)cc1OC(=O)COC(=O)/C=C/c1ccc(O)cc1"
  Measured result: 6.5
- Entry smiles: "Cc1ccc(C(C)C)cc1OC(=O)COC(=O)/C=C/c1ccc(Cl)cc1"
  Measured result: 6.7
- Entry smiles: "Cc1ccc(C(C)C)cc1OC(=O)COC(=O)c1ccc(O)cc1"
  Measured result: 14.9
- Entry smiles: "Cc1ccc(C(C)C)cc1OC(=O)COC(=O)/C=C/c1ccccc1"
  Measured result: 7.7
